# Species on record: Homo sapiens
# experimentNotes: Selectivity ratio of Ki for human kappa opioid receptor to Ki for human delta opioid receptor
recordedEndpoint: Ratio Ki

INSERT INTO measurements (linenotation, numericreadout) VALUES
  ('Oc1ccc2c3c1O[C@H]1c4ncc(-c5ccc(Cl)cc5)cc4C[C@@]4(OC/C=C/c5ccccc5)[C@@H](C2)N(CC2CC2)CC[C@]314', 0.89),
  ('CN1CC[C@]23c4c5ccc(O)c4O[C@H]2c2ncc(-c4ccc(Cl)cc4)cc2C[C@@]3(OCCCc2ccccc2)[C@H]1C5', 1.5),
  ('CN1CC[C@]23c4c5ccc(O)c4O[C@H]2c2ncc(-c4ccc(Cl)cc4)cc2C[C@@]3(OC(=O)Cc2ccccc2)[C@H]1C5', 18),
  ('CN1CC[C@]23c4c5ccc(O)c4O[C@H]2c2ncc(-c4ccc(Cl)cc4)cc2C[C@@]3(OCc2ccccc2)[C@H]1C5', 28),
  ('Oc1ccc2c3c1O[C@H]1c4ncc(-c5ccc(Cl)cc5)cc4C[C@@]4(OCc5ccccc5)[C@@H](C2)N(CC2CC2)CC[C@]314', 2.8),
  ('O=C(O[C@@]12Cc3cc(-c4ccc(Cl)cc4)cnc3[C@@H]3Oc4c(O)ccc5c4[C@@]31CCN(CC1CC1)[C@@H]2C5)c1ccccc1', 1.3),
  ('CN1CC[C@]23c4c5ccc(O)c4O[C@H]2c2ncc(-c4ccc(Cl)cc4)cc2C[C@@]3(OC(=O)c2ccccc2)[C@H]1C5', 6.6),
  ('CO[C@@]12Cc3cc(-c4ccc(Cl)cc4)cnc3[C@@H]3Oc4c(O)ccc5c4[C@@]31CCN(CC1CC1)[C@@H]2C5', 2.8),
  ('CN1CC[C@]23c4c5ccc(O)c4O[C@H]2c2ncc(-c4ccc(Cl)cc4)cc2C[C@@]3(OC(=O)CCc2ccccc2)[C@H]1C5', 4.6),
  ('O=C(Cc1ccccc1)O[C@@]12Cc3cc(-c4ccc(Cl)cc4)cnc3[C@@H]3Oc4c(O)ccc5c4[C@@]31CCN(CC1CC1)[C@@H]2C5', 2.3);

---

pKi values for the compounds below.
# targetEntity: Mu-type opioid receptor (Homo sapiens, UniProt P35372)
# Sequence (P35372 whole entry): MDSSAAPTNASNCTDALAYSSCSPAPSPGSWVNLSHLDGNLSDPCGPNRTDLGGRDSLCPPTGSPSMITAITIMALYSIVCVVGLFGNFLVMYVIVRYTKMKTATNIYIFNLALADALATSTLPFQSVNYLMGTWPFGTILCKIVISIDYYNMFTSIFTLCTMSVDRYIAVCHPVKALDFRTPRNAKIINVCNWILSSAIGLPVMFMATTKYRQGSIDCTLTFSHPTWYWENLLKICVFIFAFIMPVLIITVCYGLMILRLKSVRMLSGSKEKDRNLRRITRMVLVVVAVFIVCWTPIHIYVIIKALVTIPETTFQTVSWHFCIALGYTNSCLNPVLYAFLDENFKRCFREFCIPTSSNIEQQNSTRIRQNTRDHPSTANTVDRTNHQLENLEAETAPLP
# experimentNotes: Binding affinity to mu opioid receptor by radioligand binding assay
pKi: −log10 of the molar value.
recordedEndpoint: pKi

INSERT INTO assay_data (linenotation, recordedendpoint, numericreadout) VALUES
  ('CN1CC[C@]23c4c5ccc(O)c4O[C@H]2c2ncc(-c4ccc(Cl)cc4)cc2C[C@@]3(O)[C@H]1C5', 'pKi', 6.64),
  ('Oc1ccc2c3c1O[C@H]1c4ncc(-c5ccc(Cl)cc5)cc4C[C@@]4(O)[C@@H](C2)N(CC2CC2)CC[C@]314', 'pKi', 7.29);

---

Listing of entries alongside the reported Ratio Ki.
# Species on record: Homo sapiens
# experimentNotes: Selectivity ratio of Ki for human mu opioid receptor to Ki for human delta opioid receptor
recordedEndpoint: Ratio Ki

INSERT INTO assay_data (linenotation, recordedendpoint, numericreadout) VALUES
  ('Oc1ccc2c3c1O[C@H]1c4ncc(-c5ccc(Cl)cc5)cc4C[C@@]4(OC/C=C/c5ccccc5)[C@@H](C2)N(CC2CC2)CC[C@]314', 'Ratio Ki', 0.81),
  ('CN1CC[C@]23c4c5ccc(O)c4O[C@H]2c2ncc(-c4ccc(Cl)cc4)cc2C[C@@]3(OC(=O)c2ccccc2)[C@H]1C5', 'Ratio Ki', 4.9),
  ('CN1CC[C@]23c4c5ccc(O)c4O[C@H]2c2ncc(-c4ccc(Cl)cc4)cc2C[C@@]3(OCCCc2ccccc2)[C@H]1C5', 'Ratio Ki', 0.52),
  ('CO[C@@]12Cc3cc(-c4ccc(Cl)cc4)cnc3[C@@H]3Oc4c(O)ccc5c4[C@@]31CCN(CC1CC1)[C@@H]2C5', 'Ratio Ki', 22),
  ('CO[C@@]12Cc3cc(-c4ccc(Cl)cc4)cnc3[C@@H]3Oc4c(O)ccc5c4[C@@]31CCN(C)[C@@H]2C5', 'Ratio Ki', 4.8),
  ('O=C(O[C@@]12Cc3cc(-c4ccc(Cl)cc4)cnc3[C@@H]3Oc4c(O)ccc5c4[C@@]31CCN(CC1CC1)[C@@H]2C5)c1ccccc1', 'Ratio Ki', 2.2),
  ('Oc1ccc2c3c1O[C@H]1c4ncc(-c5ccc(Cl)cc5)cc4C[C@@]4(OCc5ccccc5)[C@@H](C2)N(CC2CC2)CC[C@]314', 'Ratio Ki', 4.4),
  ('O=C(Cc1ccccc1)O[C@@]12Cc3cc(-c4ccc(Cl)cc4)cnc3[C@@H]3Oc4c(O)ccc5c4[C@@]31CCN(CC1CC1)[C@@H]2C5', 'Ratio Ki', 0.78),
  ('O=C(CCc1ccccc1)O[C@@]12Cc3cc(-c4ccc(Cl)cc4)cnc3[C@@H]3Oc4c(O)ccc5c4[C@@]31CCN(CC1CC1)[C@@H]2C5', 'Ratio Ki', 0.62),
  ('CN1CC[C@]23c4c5ccc(O)c4O[C@H]2c2ncc(-c4ccc(Cl)cc4)cc2C[C@@]3(OC(=O)Cc2ccccc2)[C@H]1C5', 'Ratio Ki', 1.5),
  ('CN1CC[C@]23c4c5ccc(O)c4O[C@H]2c2ncc(-c4ccc(Cl)cc4)cc2C[C@@]3(OC/C=C/c2ccccc2)[C@H]1C5', 'Ratio Ki', 0.36),
  ('CN1CC[C@]23c4c5ccc(O)c4O[C@H]2c2ncc(-c4ccc(Cl)cc4)cc2C[C@@]3(OCc2ccccc2)[C@H]1C5', 'Ratio Ki', 2.6),
  ('Oc1ccc2c3c1O[C@H]1c4ncc(-c5ccc(Cl)cc5)cc4C=C4[C@@H](C2)N(CC2CC2)CC[C@]431', 'Ratio Ki', 4.8),
  ('CN1CC[C@]23c4c5ccc(O)c4O[C@H]2c2ncc(-c4ccc(Cl)cc4)cc2C[C@@]3(OC(=O)CCc2ccccc2)[C@H]1C5', 'Ratio Ki', 0.98);

The measured values listed here are drawn from ChEMBL document CHEMBL2177065.
